Numbers sourced from paper PMC5540273.

system: PIK3CD; conditions: concentration: 1 μM, replicates: in singlicate; n = 1;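 note: KINOMEscan kinase panel screen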
Observable: %Inh (%)
Please give a number only; it is taken to be in %.

Field: example entries. Status: answers known.
Molecule: COc1ccc(-c2coc3ccc(-c4nnc(C)o4)cc23)cc1
Observable: %Inh
Observed Result: 0

Molecule: COc1ccc2cc(-c3nc(-c4ccccc4C(C)C)[nH]c3-c3ccncc3)ccc2c1 [SB-660566]
Observable: %Inh
Observed Result: 0

Molecule: c1ccc(-c2ccnc3[nH]ccc23)cc1 [SB-693578]
Observable: %Inh
Observed Result: 0

Query :: Item under review: CCc1ccc(-c2ccc3c(c2)-c2n[nH]cc2S(=O)(=O)N3C)cc1 . Reported %Inh?
Result :: 0

Query :: Given the molecule CCn1c(-c2c(N)noc2C)nc2cnccc21 [SB-737856] , what is its reported %Inh?
Result :: 3

* * *

system: SIK; details: concentration: 1 μM, replicates: in singlicate; n = 1
Reported values of %Inh for individual entries
Unit % implied. Number only.

Completed entries (count: 4):
Cpd Smiles: CNC(=O)c1ccc(C)c(-n2c(C)cc(OCc3ccc(F)cc3F)c(Br)c2=O)c1
%Inh (%): 0
//
Cpd Smiles: Cn1cnc2c(N)ncnc21
%Inh (%): 0
//
Cpd Smiles: O=C1NC(=O)C(c2ccc(Cl)cc2)=C1Nc1cccc(Cl)c1
%Inh (%): 0
//
Cpd Smiles: COc1ccc(Nc2nccc(NCCNC(=O)Nc3cc(C)ccc3C)n2)cc1
%Inh (%): 0

Query :: Fill in the blank: the reported %Inh of COc1ccc2cc(-c3nc(-c4ccccc4C(C)C)[nH]c3-c3ccncc3)ccc2c1 is ____.
Result :: 0

* * *

Parameter %Inh: see the listing below.
system: YSK1; construct: gene STK25; conditions: concentration: 1 μM, replicates: in singlicate; n = 1
Supply the numeric figure in %, leaving out any unit text.

# count of solved cases: 4
Cpd Smiles: O=C1NC(=O)C(c2ccc(Cl)cc2)=C1Nc1cccc(Cl)c1
Observable: %Inh
Observed Result: 0
//
Cpd Smiles: COc1ccc(CSc2nnc(-c3ccc4ncsc4c3)o2)cc1C(F)(F)F
Observable: %Inh
Observed Result: 11
//
Cpd Smiles: COc1ccc(Nc2nccc(-c3ccc(NC(=O)c4cc5cc(F)ccc5[nH]4)cc3)n2)cc1
Observable: %Inh
Observed Result: 0
//
Cpd Smiles: Cc1ccc(NC(=O)c2ccc(Cl)cc2)cc1-c1ccc(C(=O)Nc2ccncc2)cc1
Observable: %Inh
Observed Result: 0

Shift focus to the following entry.
Query :: For Cc1cnc(N)c(/C=C/c2cncc(C(=O)NCCc3ccc(Cl)cc3Cl)c2)c1.Cl , what is its reported %Inh?
Result :: 4

* * *

Measured %Inh, listed per entry.
tested on: MYLK; conditions: concentration: 1 μM, replicates: in singlicate; n = 1
Form entry: value (%) — number only.

Compound: Cn1cnc2c(N)ncnc21
Target Or Test System: MYLK
Endpoint Unit: %
%Inh: 0

Compound: Cn1cncc1C(=O)NC1CCN(c2ccnc(Nc3ccc(F)cc3)n2)C1 (stereo not drawn)
Target Or Test System: MYLK
Endpoint Unit: %
%Inh: 0

Compound: CCn1c(-c2c(N)noc2C)nc2cnccc21
Target Or Test System: MYLK
Endpoint Unit: %
%Inh: 6

Compound: O=C1NC(=O)C(c2ccc(Cl)cc2)=C1Nc1cccc(Cl)c1
Target Or Test System: MYLK
Endpoint Unit: %
%Inh: 0

Compound: COC(=O)c1cccc(NC(=O)NC2CCN(c3ccnc(Nc4ccc(F)cc4)n3)C2)c1 (stereo not drawn)
Target Or Test System: MYLK
Endpoint Unit: %
%Inh: 0

Query :: Consider the compound Cc1ccc(NC(=O)Nc2ccc(Cl)cc2)cc1-c1ccc(C(=O)Nc2ccncc2)cc1 and give its measured %Inh.
Result :: 2

* * *

system: SGK3; conditions: concentration: 1 μM, replicates: in singlicate; n = 1
Observable: %Inh (%)
Numbers only; they are read as %.

Sample answers from the record:
Compound: O=c1cc(N2CCOCC2)nc2n(Cc3cccc(Cl)c3Cl)c3ccccc3n12 [GSK2299009]
%Inh [%]: 4

Compound: CS(=O)(=O)CCNCc1nc(-c2ccc3ncnc(Nc4ccc5c(cnn5Cc5ccccc5)c4)c3c2)cs1.Cl.Cl [GW569716]
%Inh [%]: 0

Compound: COc1cccc(C2=C(Nc3cc(Cl)c(O)c(Cl)c3)C(=O)NC2=O)c1 [SB-390767]
%Inh [%]: 0

Compound: CNc1nc(-c2ccc3c(N)n[nH]c3c2)cc(N2C[C@@H](C(=O)Nc3ccccc3)CC[C@H]2C)n1 [GSK2298859]
%Inh [%]: 1

Compound: CN1c2ccc(-c3ccc(C(N)=O)cc3)cc2-c2[nH]ncc2S1(=O)=O
%Inh [%]: 0

Compound: COC(=O)c1cccc(NC(=O)NC2CCN(c3ccnc(Nc4ccc(OC)cc4)n3)C2)c1 (centres unmarked) [GSK1379746]
%Inh [%]: 0

Compound: COc1ccc(Nc2nccc(N3CCC(NC(=O)C(C)c4ccc(Cl)cc4)C3)n2)cc1 (centres unmarked) [GSK1379735]
%Inh [%]: 0

Compound: COC(=O)C(Cc1ccccc1)NC(=O)NC1CCN(c2ccnc(Nc3ccc(F)cc3)n2)C1 (centres unmarked) [GSK1379714]
%Inh [%]: 0

Now for another entry.
Query :: For COc1ccc(-c2coc3ccc(-c4nnc(C)o4)cc23)cc1 , what is its reported %Inh?
Result :: 0

* * *

system: RSK2(Kin.Dom.2-C-terminal); construct: gene RPS6KA3; conditions: concentration: 1 μM, replicates: in singlicate; n = 1
// %Inh lookup, one value per entry
Lab book: enter the figure in %, no units written.

Answered examples (4):
Cpd Smiles: COc1ccc(-c2coc3ccc(-c4nnc(C)o4)cc23)cc1
%Inh / %: 0
--
Cpd Smiles: CCc1ccc(-c2ccc3c(c2)-c2n[nH]cc2S(=O)(=O)N3C)cc1
%Inh / %: 52
--
Cpd Smiles: Fc1ccc(-c2nc3n(c2-c2ccncc2)CCS3)cc1
%Inh / %: 7
--
Cpd Smiles: Cc1cnc(N)c(/C=C/c2cncc(C(=O)NCCc3ccc(Cl)cc3Cl)c2)c1.Cl
%Inh / %: 2

Now examine the next entry.
Query :: Find the recorded %Inh belonging to CC(=O)c1c(C)c2cnc(Nc3ccc(N4CCNCC4)cn3)nc2n(C2CCCC2)c1=O and report it.
Result :: 0

* * *

test system: PRKX; conditions: concentration: 1 μM, replicates: in singlicate; n = 1
Observable: %Inh (%)
Return type: number; implicit unit %.

Compound: Cc1ccccc1-c1cc(-c2c[nH]nc2-c2ccccn2)ccn1 [GW680061]
Endpoint Unit: %
%Inh: 5

Now take the following compound into account.
Query :: Which %Inh is listed for O=c1cc(N2CCOCC2)nc2n(Cc3ccccc3F)ccn12 [GSK2297428] ?
Result :: 0

* * *

system: NLK; details: concentration: 1 μM, replicates: in singlicate; n = 1
Observable: %Inh (%)
Lab book: enter the figure in %, no units written.

Molecule: CC[C@@H]1CO[C@H](C(=O)Nc2ccccc2)CN1c1cc(-c2ccc3c(N)n[nH]c3c2)nc(NC)n1
Target Or Test System: NLK
%Inh / %: 17

Query :: I am curious: what %Inh value has been reported for COC(=O)C(Cc1ccccc1)NC(=O)NC1CCN(c2ccnc(Nc3ccc(F)cc3)n2)C1 (stereo not shown) ?
Result :: 6

Query :: Item under review: CS(=O)(=O)CCNCc1nc(-c2ccc3ncnc(Nc4ccc5c(cnn5Cc5ccccc5)c4)c3c2)cs1.Cl.Cl . Reported %Inh?
Result :: 16

Query :: Requested field: %Inh. Item: O=C1NC(=O)C(c2ccc(Cl)cc2)=C1Nc1ccc(O)cc1
Result :: 0

* * *

tested on: TGFBR2; conditions: concentration: 1 μM, replicates: in singlicate; n = 1
Observable: %Inh (%)
Numeric answer only, unit % assumed.

Query :: Please state recorded %Inh (tested on TGFBR2) of COC(=O)C(Cc1ccccc1)NC(=O)NC1CCN(c2ccnc(Nc3ccc(F)cc3)n2)C1 (stereo not drawn)
Result :: 0

Query :: Any idea what %Inh came out for COc1cccc(CNC(=O)NC2CCN(c3ccnc(Nc4ccc(F)cc4)n3)C2)c1 (stereo not drawn) on TGFBR2?
Result :: 0

Query :: // lookup %Inh | system=TGFBR2 | key= COc1ccc(CSc2nnc(-c3ccc4nccn4c3)o2)cc1C(F)(F)F
Result :: 12

Query :: Which %Inh is reported with TGFBR2 for this entry: COC(=O)c1cccc(NC(=O)NC2CCN(c3ccnc(Nc4ccc(F)cc4)n3)C2)c1 (stereo not drawn) ?
Result :: 0

Query :: Observed %Inh on TGFBR2 for COC(=O)C(NC(=O)NC1CCN(c2ccnc(Nc3ccc(F)cc3)n2)C1)c1ccccc1 (stereo not drawn) , please.
Result :: 0

* * *

test system: ACVR2B; conditions: concentration: 1 μM, replicates: in singlicate; n = 1
In this section, each of the molecules is paired with its reported %Inh.
Number only, in %; omit the unit.

Molecule: Cn1cncc1-c1cc2c(Nc3ccc(OCc4ccccc4)cc3)ncnc2cn1 [GW281179]
Target Or Test System: ACVR2B
Observed Result: 18
//
Molecule: O=C(Nc1n[nH]c2nc(-c3cccs3)c(Br)cc12)C1CC1 [SB-735297]
Target Or Test System: ACVR2B
Observed Result: 0
//
Molecule: CC(=O)c1c(C)c2cnc(Nc3ccn(C)n3)nc2n(C2CCCC2)c1=O
Target Or Test System: ACVR2B
Observed Result: 0
//
Molecule: CCn1c(-c2ccccc2)nc2cnccc21 [SB-733416]
Target Or Test System: ACVR2B
Observed Result: 15
//
Molecule: Cc1ccccc1Cn1ccn2c(=O)cc(N3CCOCC3)nc12 [GSK2269905]
Target Or Test System: ACVR2B
Observed Result: 0
//
Molecule: CNc1nc(-c2ccc3c(N)n[nH]c3c2)cc(N2C[C@@H](C(=O)Nc3ccccc3)CC[C@H]2C)n1 [GSK2298859]
Target Or Test System: ACVR2B
Observed Result: 12

Query :: Request the reported %Inh associated with CC(=O)c1c(C)c2cnc(Nc3ccc(N4CCNCC4)cn3)nc2n(C2CCCC2)c1=O
Result :: 0

Query :: Given the molecule CSc1ccc(-c2nc3n(c2-c2ccncc2)CCC3)cc1 [SKF-105561] , what is its reported %Inh?
Result :: 2

Query :: Find the recorded %Inh belonging to COc1ccc(Nc2nccc(N3CCC(NC(=O)C(C)c4ccc(Cl)cc4)C3)n2)cc1 (stereo not shown) [GSK1379735] and report it.
Result :: 0

Query :: What value of %Inh has been reported for the following molecule? CN1c2ccc(-c3ccc(C(N)=O)cc3)cc2-c2[nH]ncc2S1(=O)=O
Result :: 16
